Listing of entries alongside the reported UHI 100 Å C18 − TFA.
# protocol description: Isocratic RP HPLC: log k vs φ plots, UHI (acetonitrile concentration at k=10) and S slope
# Assay type: physicochemical
# condition context: acetonitrile concentration (ACN %) at k=10, isocratic, Luna C18(2), 0.1% TFA, ~25° C.; in %
Write the number on its own, no unit after it.

INSERT INTO assay_data (substance, experimental_endpoint, assay_value) VALUES
  ('LLLGGDFR [custom synthesized standard peptide]', 'UHI 100 Å C18 − TFA', 20.72),
  ('LGGGGGGDFR [custom synthesized standard peptide]', 'UHI 100 Å C18 − TFA', 10.74);

For the substance LLLLDFR [custom synthesized standard peptide] , what UHI 100 Å C18 − TFA is on record?
26.07

* * *

# protocol description: Isocratic RP HPLC: log k vs φ plots, UHI (acetonitrile concentration at k=10) and S slope
# Type: physicochemical
# condition context: acetonitrile concentration (ACN %) at k=10, isocratic, Vydac 218 TP C18, 0.1% TFA, ~25° C.; in %
experimental endpoint: UHI 300 Å C18 − TFA

Previously resolved entries follow.
INSERT INTO assay_data (substance, experimental_endpoint, assay_value) VALUES
  ('LGGGGGGDGSR [custom synthesized standard peptide]', 'UHI 300 Å C18 − TFA', 1.89),
  ('LGGGGGGDFR [custom synthesized standard peptide]', 'UHI 300 Å C18 − TFA', 8.40),
  ('LLLGGDFR [custom synthesized standard peptide]', 'UHI 300 Å C18 − TFA', 18.90),
  ('LLGGGGDFR [custom synthesized standard peptide]', 'UHI 300 Å C18 − TFA', 13.35),
  ('LLLLLDFR [custom synthesized standard peptide]', 'UHI 300 Å C18 − TFA', 28.60);

Below: the item to evaluate.
For the substance LLLLDFR [custom synthesized standard peptide] , what UHI 300 Å C18 − TFA is on record?
24.78

* * *

# protocol description: Isocratic RP HPLC: log k vs φ plots, UHI (acetonitrile concentration at k=10) and S slope
# Assay type: physicochemical
# condition context: acetonitrile concentration (ACN %) at k=10, isocratic, Luna C18(2), 0.1% formic acid, ~25° C.; in %
experimental endpoint: UHI 100 Å C18 − FA

INSERT INTO assay_data (substance, experimental_endpoint, assay_value) VALUES
  ('LLGGGGDFR [custom synthesized standard peptide]', 'UHI 100 Å C18 − FA', 8.55);

For the substance LGGGGGGDFR [custom synthesized standard peptide] , what UHI 100 Å C18 − FA is on record?
4.58

For the substance LGGGGGGDGSR [custom synthesized standard peptide] , what UHI 100 Å C18 − FA is on record?
<0

For the substance LLLLDFR [custom synthesized standard peptide] , what UHI 100 Å C18 − FA is on record?
18.26

For the substance LLLGGDFR [custom synthesized standard peptide] , what UHI 100 Å C18 − FA is on record?
13.08

For the substance LLLLLDFR [custom synthesized standard peptide] , what UHI 100 Å C18 − FA is on record?
21.59

* * *

# protocol description: Isocratic RP HPLC: log k vs φ plots, UHI (acetonitrile concentration at k=10) and S slope
# Assay type: physicochemical
# condition context: acetonitrile concentration (ACN %) at k=10, isocratic, Luna C18(2), 0.1% TFA, ~25° C.; in %
Listing of entries alongside the reported UHI 100 Å C18 − TFA.
Write the number on its own, no unit after it.

Previously resolved entries follow.
INSERT INTO assay_data (biopolymer_sequence, assay_value) VALUES
  ('LLLLLDFR [custom synthesized standard peptide]', 29.58),
  ('LGGGGGGDGSR [custom synthesized standard peptide]', 3.97);

Below: the item to evaluate.
For the sequence LLGGGGDFR [custom synthesized standard peptide] , what UHI 100 Å C18 − TFA is on record?
15.53
